- System: B. subtilis 168
- Protocol Text: Bliss interaction score (quartile over a dose matrix) (fitness difference); higher = more antagonism (negative = synergy);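 further: first quartile when negative (synergy) and third quartile when positive (antagonism)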
- Condition Parameters: main component drawn
Label 1 when Bliss interaction score >= 0.09; otherwise -1.

Ask | Record CC[C@H](C)[C@H](N)C1=N[C@H](C(=O)N[C@@H](CC(C)C)C(=O)N[C@H](CCC(=O)O)C(=O)N[C@H](C(=O)N[C@H]2CCCCNC(=O)[C@H](CC(N)=O)NC(=O)[C@@H](CC(=O)O)NC(=O)[C@H](Cc3cnc[nH]3)NC(=O)[C@@H](Cc3ccccc3)NC(=O)[C@H]([C@@H](C)CC)NC(=O)[C@@H](CCCN)NC2=O)[C@@H](C)CC)CS1 [Bacitracin] + COc1ccc(C[C@H](N)C(=O)N[C@H]2[C@@H](O)[C@H](n3cnc4c(N(C)C)ncnc43)O[C@@H]2CO)cc1 [Puromycin] ; criterion: Bliss interaction score no lower than 0.09. Met?
Reply | -1

Ask | Same for CC[C@H](C)[C@H](N)C1=N[C@H](C(=O)N[C@@H](CC(C)C)C(=O)N[C@H](CCC(=O)O)C(=O)N[C@H](C(=O)N[C@H]2CCCCNC(=O)[C@H](CC(N)=O)NC(=O)[C@@H](CC(=O)O)NC(=O)[C@H](Cc3cnc[nH]3)NC(=O)[C@@H](Cc3ccccc3)NC(=O)[C@H]([C@@H](C)CC)NC(=O)[C@@H](CCCN)NC2=O)[C@@H](C)CC)CS1 [Bacitracin] + O=C(O)[C@H]1/C(=C/CO)O[C@@H]2CC(=O)N21 [Clavulanic]
Reply | 1

Ask | Same for CC[C@H](C)[C@H](N)C1=N[C@H](C(=O)N[C@@H](CC(C)C)C(=O)N[C@H](CCC(=O)O)C(=O)N[C@H](C(=O)N[C@H]2CCCCNC(=O)[C@H](CC(N)=O)NC(=O)[C@@H](CC(=O)O)NC(=O)[C@H](Cc3cnc[nH]3)NC(=O)[C@@H](Cc3ccccc3)NC(=O)[C@H]([C@@H](C)CC)NC(=O)[C@@H](CCCN)NC2=O)[C@@H](C)CC)CS1 [Bacitracin] + CN(N=O)C(=O)N[C@@H](C=O)[C@@H](O)[C@H](O)[C@H](O)CO [Streptozotocin]
Reply | -1

Ask | Same for CC[C@H](C)[C@H](N)C1=N[C@H](C(=O)N[C@@H](CC(C)C)C(=O)N[C@H](CCC(=O)O)C(=O)N[C@H](C(=O)N[C@H]2CCCCNC(=O)[C@H](CC(N)=O)NC(=O)[C@@H](CC(=O)O)NC(=O)[C@H](Cc3cnc[nH]3)NC(=O)[C@@H](Cc3ccccc3)NC(=O)[C@H]([C@@H](C)CC)NC(=O)[C@@H](CCCN)NC2=O)[C@@H](C)CC)CS1 [Bacitracin] + C[C@@H]1O[C@@H]1P(=O)(O)O [Fosfomycin]
Reply | 1

Ask | Same for CC[C@H]1OC(=O)[C@H](C)[C@@H](O[C@H]2C[C@@](C)(OC)[C@@H](O)[C@H](C)O2)[C@H](C)[C@@H](O[C@@H]2O[C@H](C)C[C@H](N(C)C)[C@H]2O)[C@](C)(O)C[C@@H](C)C(=O)[C@H](C)[C@@H](O)[C@]1(C)O [Erythromycin] + CC(C1CCC(C(O1)OC2C(CC(C(C2O)OC3C(C(C(CO3)(C)O)NC)O)N)N)N)NC
Reply | 1

----------
- System: S. pneumoniae D39V
- Protocol Text: Bliss interaction score (quartile over a dose matrix) (fitness difference); higher = more antagonism (negative = synergy)
Kindly state Bliss interaction score for each of the entries shown.
One number for each entry.

As a guide, the following entries are already answered.
• CC[C@H]1OC(=O)[C@H](C)[C@@H](O[C@H]2C[C@@](C)(OC)[C@@H](O)[C@H](C)O2)[C@H](C)[C@@H](O[C@@H]2O[C@H](C)C[C@H](N(C)C)[C@H]2O)[C@](C)(O)C[C@@H](C)C(=O)[C@H](C)[C@@H](O)[C@]1(C)O [Erythromycin] + C[n+]1ccc(-c2cc[n+](C)cc2)cc1 [Paraquat] = 0.0496
• CN[C@@H]1[C@H](O)[C@H](NC)[C@H]2O[C@@]3(O)C(=O)C[C@@H](C)O[C@H]3O[C@@H]2[C@H]1O [Spectinomycin] + CN[C@@H]1[C@H](O[C@H]2[C@H](O[C@H]3[C@H](O)[C@@H](O)[C@H](N=C(N)N)[C@@H](O)[C@@H]3N=C(N)N)O[C@@H](C)[C@]2(O)C=O)O[C@@H](CO)[C@H](O)[C@H]1O [Streptomycin] = 0.0931

Ask | Quick one: Bliss interaction score for CC[C@H]1OC(=O)[C@H](C)[C@@H](O[C@H]2C[C@@](C)(OC)[C@@H](O)[C@H](C)O2)[C@H](C)[C@@H](O[C@@H]2O[C@H](C)C[C@H](N(C)C)[C@H]2O)[C@](C)(O)C[C@@H](C)C(=O)[C@H](C)[C@@H](O)[C@]1(C)O [Erythromycin] + CCC[C@@H]1C[C@@H](C(=O)N[C@@H]([C@H]2O[C@H](SC)[C@H](O)[C@@H](O)[C@H]2O)[C@@H](C)O)N(C)C1 [Lincomycin] ?
Reply | 0.0856

----------
- Tested on: S. aureus DSM 20231
- Protocol Text: Bliss interaction score (quartile over a dose matrix) (fitness difference); higher = more antagonism (negative = synergy)
- Condition Parameters: main component drawn
Quantity Measured: Bliss interaction score
Numbers only.

As a guide, the following entries are already answered.
* CC[C@H](C)[C@H](N)C1=N[C@H](C(=O)N[C@@H](CC(C)C)C(=O)N[C@H](CCC(=O)O)C(=O)N[C@H](C(=O)N[C@H]2CCCCNC(=O)[C@H](CC(N)=O)NC(=O)[C@@H](CC(=O)O)NC(=O)[C@H](Cc3cnc[nH]3)NC(=O)[C@@H](Cc3ccccc3)NC(=O)[C@H]([C@@H](C)CC)NC(=O)[C@@H](CCCN)NC2=O)[C@@H](C)CC)CS1 [Bacitracin] + CO/N=C(\C(=O)N[C@@H]1C(=O)N2C(C(=O)O)=C(COC(C)=O)CS[C@H]12)c1csc(N)n1 [Cefotaxime] | -0.0827
* CC[C@H](C)[C@H](N)C1=N[C@H](C(=O)N[C@@H](CC(C)C)C(=O)N[C@H](CCC(=O)O)C(=O)N[C@H](C(=O)N[C@H]2CCCCNC(=O)[C@H](CC(N)=O)NC(=O)[C@@H](CC(=O)O)NC(=O)[C@H](Cc3cnc[nH]3)NC(=O)[C@@H](Cc3ccccc3)NC(=O)[C@H]([C@@H](C)CC)NC(=O)[C@@H](CCCN)NC2=O)[C@@H](C)CC)CS1 [Bacitracin] + CN(C)C(=O)C(CCN1CCC(O)(c2ccc(Cl)cc2)CC1)(c1ccccc1)c1ccccc1 [Loperamide] | -0.0677
* CC[C@H](C)[C@H](N)C1=N[C@H](C(=O)N[C@@H](CC(C)C)C(=O)N[C@H](CCC(=O)O)C(=O)N[C@H](C(=O)N[C@H]2CCCCNC(=O)[C@H](CC(N)=O)NC(=O)[C@@H](CC(=O)O)NC(=O)[C@H](Cc3cnc[nH]3)NC(=O)[C@@H](Cc3ccccc3)NC(=O)[C@H]([C@@H](C)CC)NC(=O)[C@@H](CCCN)NC2=O)[C@@H](C)CC)CS1 [Bacitracin] + C[n+]1ccc(-c2cc[n+](C)cc2)cc1 [Paraquat] | -0.0542
* CC[C@H](C)[C@H](N)C1=N[C@H](C(=O)N[C@@H](CC(C)C)C(=O)N[C@H](CCC(=O)O)C(=O)N[C@H](C(=O)N[C@H]2CCCCNC(=O)[C@H](CC(N)=O)NC(=O)[C@@H](CC(=O)O)NC(=O)[C@H](Cc3cnc[nH]3)NC(=O)[C@@H](Cc3ccccc3)NC(=O)[C@H]([C@@H](C)CC)NC(=O)[C@@H](CCCN)NC2=O)[C@@H](C)CC)CS1 [Bacitracin] + O=C(O)[C@H]1/C(=C/CO)O[C@@H]2CC(=O)N21 [Clavulanic] | -0.0375
* CC[C@H](C)[C@H](N)C1=N[C@H](C(=O)N[C@@H](CC(C)C)C(=O)N[C@H](CCC(=O)O)C(=O)N[C@H](C(=O)N[C@H]2CCCCNC(=O)[C@H](CC(N)=O)NC(=O)[C@@H](CC(=O)O)NC(=O)[C@H](Cc3cnc[nH]3)NC(=O)[C@@H](Cc3ccccc3)NC(=O)[C@H]([C@@H](C)CC)NC(=O)[C@@H](CCCN)NC2=O)[C@@H](C)CC)CS1 [Bacitracin] + CC1(C)S[C@@H]2[C@H](NC(=O)Cc3ccccc3)C(=O)N2[C@H]1C(=O)O [PenicillinG] | 0.0263
* CC[C@H](C)[C@H](N)C1=N[C@H](C(=O)N[C@@H](CC(C)C)C(=O)N[C@H](CCC(=O)O)C(=O)N[C@H](C(=O)N[C@H]2CCCCNC(=O)[C@H](CC(N)=O)NC(=O)[C@@H](CC(=O)O)NC(=O)[C@H](Cc3cnc[nH]3)NC(=O)[C@@H](Cc3ccccc3)NC(=O)[C@H]([C@@H](C)CC)NC(=O)[C@@H](CCCN)NC2=O)[C@@H](C)CC)CS1 [Bacitracin] + CC(=O)NC[C@H]1CN(c2ccc(N3CCOCC3)c(F)c2)C(=O)O1 [Linezolid] | -0.0504
* CC[C@H](C)[C@H](N)C1=N[C@H](C(=O)N[C@@H](CC(C)C)C(=O)N[C@H](CCC(=O)O)C(=O)N[C@H](C(=O)N[C@H]2CCCCNC(=O)[C@H](CC(N)=O)NC(=O)[C@@H](CC(=O)O)NC(=O)[C@H](Cc3cnc[nH]3)NC(=O)[C@@H](Cc3ccccc3)NC(=O)[C@H]([C@@H](C)CC)NC(=O)[C@@H](CCCN)NC2=O)[C@@H](C)CC)CS1 [Bacitracin] + C[C@@H](O)[C@H]1C(=O)N2C(C(=O)O)=C(SCCNC=N)C[C@H]12 [Imipenem] | 0.0207
* CC[C@H](C)[C@H](N)C1=N[C@H](C(=O)N[C@@H](CC(C)C)C(=O)N[C@H](CCC(=O)O)C(=O)N[C@H](C(=O)N[C@H]2CCCCNC(=O)[C@H](CC(N)=O)NC(=O)[C@@H](CC(=O)O)NC(=O)[C@H](Cc3cnc[nH]3)NC(=O)[C@@H](Cc3ccccc3)NC(=O)[C@H]([C@@H](C)CC)NC(=O)[C@@H](CCCN)NC2=O)[C@@H](C)CC)CS1 [Bacitracin] + CO/N=C(\C(=O)N[C@@H]1C(=O)N2C(C(=O)[O-])=C(C[N+]3(C)CCCC3)CS[C@H]12)c1csc(N)n1 [Cefepime] | 0.0889

Batch of 2 molecules: report Bliss interaction score for each.
1. CC[C@H](C)[C@H](N)C1=N[C@H](C(=O)N[C@@H](CC(C)C)C(=O)N[C@H](CCC(=O)O)C(=O)N[C@H](C(=O)N[C@H]2CCCCNC(=O)[C@H](CC(N)=O)NC(=O)[C@@H](CC(=O)O)NC(=O)[C@H](Cc3cnc[nH]3)NC(=O)[C@@H](Cc3ccccc3)NC(=O)[C@H]([C@@H](C)CC)NC(=O)[C@@H](CCCN)NC2=O)[C@@H](C)CC)CS1 [Bacitracin] + CN(C)[C@@H]1C(O)=C(C(N)=O)C(=O)[C@@]2(O)C(O)=C3C(=O)c4c(O)ccc(Cl)c4[C@@](C)(O)[C@H]3C[C@@H]12 [Clortetracycline]
2. CC[C@H](C)[C@H](N)C1=N[C@H](C(=O)N[C@@H](CC(C)C)C(=O)N[C@H](CCC(=O)O)C(=O)N[C@H](C(=O)N[C@H]2CCCCNC(=O)[C@H](CC(N)=O)NC(=O)[C@@H](CC(=O)O)NC(=O)[C@H](Cc3cnc[nH]3)NC(=O)[C@@H](Cc3ccccc3)NC(=O)[C@H]([C@@H](C)CC)NC(=O)[C@@H](CCCN)NC2=O)[C@@H](C)CC)CS1 [Bacitracin] + COc1cc(Cc2cnc(N)nc2N)cc(OC)c1OC [Trimethoprim]

Reply |
0.0294
0.013
